Reference source for all entries: patent US8148422B2

molecular target: canine TRPM8 (Canis lupus familiaris); construct: expressed in transfected cells; assay: In vitro canine TRPM8 functional assay (Ca2+-sensitive fluorescent dye, FLIPR or FDSS, icilin challenge); type: cell-based; settings: HEK293 cells stably expressing canine TRPM8; icilin at approx. 80% maximal response; eight-point dose-response; single determinations unless otherwise noted; read-out: IC50
Sequence (Q1A7N1 1-1104): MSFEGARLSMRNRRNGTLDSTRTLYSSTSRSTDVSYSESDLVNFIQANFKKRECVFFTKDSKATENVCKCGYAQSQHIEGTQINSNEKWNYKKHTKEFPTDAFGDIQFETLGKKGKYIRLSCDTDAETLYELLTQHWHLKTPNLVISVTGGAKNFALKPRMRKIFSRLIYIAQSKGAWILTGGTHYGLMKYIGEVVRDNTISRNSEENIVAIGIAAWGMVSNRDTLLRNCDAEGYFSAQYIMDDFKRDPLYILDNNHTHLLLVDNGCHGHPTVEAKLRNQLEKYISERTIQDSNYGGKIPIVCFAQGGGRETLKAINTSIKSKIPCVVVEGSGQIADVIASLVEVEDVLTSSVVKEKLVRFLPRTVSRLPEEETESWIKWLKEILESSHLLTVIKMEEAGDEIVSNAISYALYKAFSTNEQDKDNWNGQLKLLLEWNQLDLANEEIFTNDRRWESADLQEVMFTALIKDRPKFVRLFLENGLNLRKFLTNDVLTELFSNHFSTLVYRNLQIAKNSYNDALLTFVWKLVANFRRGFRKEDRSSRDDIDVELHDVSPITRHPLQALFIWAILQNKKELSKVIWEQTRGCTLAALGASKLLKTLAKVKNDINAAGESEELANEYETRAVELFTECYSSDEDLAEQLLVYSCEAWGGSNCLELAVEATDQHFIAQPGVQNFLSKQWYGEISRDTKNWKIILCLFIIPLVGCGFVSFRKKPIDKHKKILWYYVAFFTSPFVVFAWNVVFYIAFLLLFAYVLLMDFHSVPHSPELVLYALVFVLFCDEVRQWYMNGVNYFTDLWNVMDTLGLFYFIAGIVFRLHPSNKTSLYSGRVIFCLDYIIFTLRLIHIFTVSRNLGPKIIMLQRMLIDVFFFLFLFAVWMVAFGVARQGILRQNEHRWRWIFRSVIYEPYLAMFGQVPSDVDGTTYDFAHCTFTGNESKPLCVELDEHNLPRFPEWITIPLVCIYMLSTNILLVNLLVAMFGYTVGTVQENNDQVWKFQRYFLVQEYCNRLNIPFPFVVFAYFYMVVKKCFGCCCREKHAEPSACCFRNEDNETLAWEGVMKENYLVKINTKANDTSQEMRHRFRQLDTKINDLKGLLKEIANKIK
Measurement Kind: IC50 (nM)

1. Cc1c(N(Cc2ccc(OC(F)(F)F)cc2)S(=O)(=O)CCN2CCC(F)(F)CC2)sc2ccccc12 : 17
2. Cc1c(N(Cc2ccc(OC(F)(F)F)cc2)S(=O)(=O)CCN2CCCC(C(F)(F)F)C2)sc2ccccc12 (stereo not shown) : 27
3. Cc1c(N(CCC2CC2)S(=O)(=O)CCN(C)Cc2ccccc2)sc2ccccc12 : 59
4. CCCCN(CCCC)CCS(=O)(=O)N(Cc1ccc(OC(F)(F)F)cc1)c1sc2ccccc2c1C : 22
5. O=S(=O)(CCN1CCCCC1)N(Cc1ccc(OC(F)(F)F)cc1)c1sc2ccccc2c1Cl : 30

[I] CCOC(=O)CNCCS(=O)(=O)N(Cc1ccc(OC(F)(F)F)cc1)c1sc2ccccc2c1C
[II] Cc1c(N(Cc2ccc(OC(F)(F)F)cc2)S(=O)(=O)CCN(C)Cc2ccccc2)sc2ccccc12
stdin: Between these two entries, I and II , state which has the higher IC50. Pick one; state its label.
stdout: I
